# test summary: Stability in CWE with protease inhibitor cocktail (PIC), capillary zone electrophoresis
# Assay type: in vitro ADME, human
# setup conditions: 1 mg/ml in PBS mixed 1:1 with CWE (1 mg/ml protein, pool of 5 donors) in PBS containing PIC (final 1:140 v/v), 37°C, 24 h; CZE, ratio to imidazole, 0 h = 100%; experiment 1 of 3
Where no end group is shown, it is not given here.
outcome measure: Percentage intact, CWE + PIC 24h (%)

> print(dat)
                                  substance                   outcome.measure  unit.descriptor  observed.measurement
1        RKFHEKHHSHREFPFYGDYGSNYLYDN [Hst2]  Percentage intact, CWE + PIC 24h                %               76.7074
2  DSHEKRHHGYRRKFHEKHHSHREFPFYGDYGSNYLYDN [Hst1]  Percentage intact, CWE + PIC 24h                %               78.4236
3  cyclo(DNLPETGGDSHEKRHHGYRRKFHEKHHSHREFPFYGDYGSNYLY) [cHst1]  Percentage intact, CWE + PIC 24h                %               76.8799
4                  SHREFPFYGDYGS [mad-Hst1]  Percentage intact, CWE + PIC 24h                %               92.5228

###

# test summary: Stability in chronic wound extracts (CWE), capillary zone electrophoresis
# Format: in vitro ADME, human
# setup conditions: 1 mg/ml in PBS mixed 1:1 with CWE (1 mg/ml protein, pool of 5 donors) in PBS, 37°C, 16 h; CZE, UV 200 nm, ratio to imidazole, 0 h = 100%; experiment 2 of 3
Where no end group is shown, it is not given here.
outcome measure: Percentage intact, CWE 16h (%)

For orientation, consider the following solved cases.
> print(dat)
                                  substance  observed.measurement
1  cyclo(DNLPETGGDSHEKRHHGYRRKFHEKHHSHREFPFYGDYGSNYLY) [cHst1]               74.8159
2  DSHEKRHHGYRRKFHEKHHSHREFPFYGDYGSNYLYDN [Hst1]                20.767

A: SHREFPFYGDYGS [mad-Hst1]
B: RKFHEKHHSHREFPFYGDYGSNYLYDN [Hst2]
-- ask In terms of reported Percentage intact, CWE 16h, does A or B have the smaller number? Indicate which entry you chose by stating its label.
-- reply B
(B: 27.664%, A: 65.943%)

###

# test summary: Stability in chronic wound extracts (CWE), capillary zone electrophoresis
# Type: in vitro ADME, human
# setup conditions: 1 mg/ml in PBS mixed 1:1 with CWE (1 mg/ml protein, pool of 5 donors) in PBS, 37°C, 16 h; CZE, UV 200 nm, ratio to imidazole, 0 h = 100%; experiment 1 of 3
Where no end group is shown, it is not given here.
outcome measure: Percentage intact, CWE 16h (%)

> print(dat)
                                  substance  observed.measurement
1  cyclo(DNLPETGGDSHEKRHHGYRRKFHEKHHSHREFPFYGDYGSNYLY) [cHst1]               71.6467

I: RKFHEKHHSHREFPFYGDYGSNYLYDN [Hst2]
II: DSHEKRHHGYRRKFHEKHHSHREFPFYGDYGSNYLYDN [Hst1]
-- ask In terms of reported Percentage intact, CWE 16h, does I or II have the smaller number? Indicate which entry you chose by stating its label.
-- reply II

###

# test summary: Stability in chronic wound extracts (CWE), capillary zone electrophoresis
# Format: in vitro ADME, human
# setup conditions: 1 mg/ml in PBS mixed 1:1 with CWE (1 mg/ml protein, pool of 5 donors) in PBS, 37°C, 24 h; CZE, UV 200 nm, ratio to imidazole, 0 h = 100%; experiment 1 of 3
Where no end group is shown, it is not given here.
outcome measure: Percentage intact, CWE 24h (%)

> print(dat)
                                  substance  observed.measurement
1  cyclo(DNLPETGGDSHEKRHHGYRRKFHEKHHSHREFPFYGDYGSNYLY) [cHst1]               54.5627

I: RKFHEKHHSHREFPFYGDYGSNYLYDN [Hst2]
II: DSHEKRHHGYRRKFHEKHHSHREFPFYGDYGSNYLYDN [Hst1]
III: SHREFPFYGDYGS [mad-Hst1]
-- ask hey, can you rank those substances up there by Percentage intact, CWE 24h? biggest number first please Quick reminder: the answer is the labels in the order asked.
-- reply III, I, II

###

# test summary: Stability in CWE with protease inhibitor cocktail (PIC), capillary zone electrophoresis
# Format: in vitro ADME, human
# setup conditions: 1 mg/ml in PBS mixed 1:1 with CWE (1 mg/ml protein, pool of 5 donors) in PBS containing PIC (final 1:140 v/v), 37°C, 72 h; CZE, ratio to imidazole, 0 h = 100%; experiment 2 of 3
Where no end group is shown, it is not given here.
outcome measure: Percentage intact, CWE + PIC 72h (%)

For orientation, consider the following solved cases.
> print(dat)
                            substance  observed.measurement
1            SHREFPFYGDYGS [mad-Hst1]               73.8197
2  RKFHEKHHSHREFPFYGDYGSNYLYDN [Hst2]               66.4949

P: cyclo(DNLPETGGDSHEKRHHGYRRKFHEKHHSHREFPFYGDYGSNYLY) [cHst1]
Q: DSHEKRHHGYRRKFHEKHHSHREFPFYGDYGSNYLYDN [Hst1]
-- ask Thinking about recorded Percentage intact, CWE + PIC 72h values, which is higher, P or Q ? Indicate which entry you chose by stating its label.
-- reply P
(P: 65.5213%, Q: 41.8342%)

###

# test summary: Stability in CWE with protease inhibitor cocktail (PIC), capillary zone electrophoresis
# Assay type: in vitro ADME, human
# setup conditions: 1 mg/ml in PBS mixed 1:1 with CWE (1 mg/ml protein, pool of 5 donors) in PBS containing PIC (final 1:140 v/v), 37°C, 4 h; CZE, ratio to imidazole, 0 h = 100%; experiment 2 of 3
# Description: Debridement tissue was obtained from chronic ulcers of 15 patients with therapy resistant (arterio-venous) leg ulcers, according to procedures described earlier. […] Total protein content of the supernatant was measured using the BioRad Protein Assay (BioRad Laboratories, Hercules, California, USA) essentially as described by the supplier. […]
Where no end group is shown, it is not given here.
outcome measure: Percentage intact, CWE + PIC 4h (%)

> print(dat)
                                  substance                  outcome.measure  observed.measurement
1        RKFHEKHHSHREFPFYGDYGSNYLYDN [Hst2]  Percentage intact, CWE + PIC 4h               92.7977
2  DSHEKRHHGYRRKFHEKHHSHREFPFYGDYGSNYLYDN [Hst1]  Percentage intact, CWE + PIC 4h                81.649
3                  SHREFPFYGDYGS [mad-Hst1]  Percentage intact, CWE + PIC 4h               95.8953
4  cyclo(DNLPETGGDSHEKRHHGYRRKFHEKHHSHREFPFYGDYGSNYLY) [cHst1]  Percentage intact, CWE + PIC 4h               77.3258

###

# test summary: Stability in chronic wound extracts (CWE), capillary zone electrophoresis
# Assay type: in vitro ADME, human
# setup conditions: 1 mg/ml in PBS mixed 1:1 with CWE (1 mg/ml protein, pool of 5 donors) in PBS, 37°C, 96 h; CZE, UV 200 nm, ratio to imidazole, 0 h = 100%; experiment 2 of 3
Where no end group is shown, it is not given here.
outcome measure: Percentage intact, CWE 96h (%)

a: SHREFPFYGDYGS [mad-Hst1]
b: cyclo(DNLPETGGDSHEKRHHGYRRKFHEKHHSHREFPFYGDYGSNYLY) [cHst1]
c: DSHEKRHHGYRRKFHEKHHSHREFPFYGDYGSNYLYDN [Hst1]
-- ask Put the above entries in order of falling Percentage intact, CWE 96h. Quick reminder: the answer is the labels in the order asked.
-- reply b, a, c

###

# test summary: Stability in chronic wound extracts (CWE), capillary zone electrophoresis
# Assay type: in vitro ADME, human
# setup conditions: 1 mg/ml in PBS mixed 1:1 with CWE (1 mg/ml protein, pool of 5 donors) in PBS, 37°C, 2 h; CZE, UV 200 nm, ratio to imidazole, 0 h = 100%; experiment 3 of 3
Where no end group is shown, it is not given here.
outcome measure: Percentage intact, CWE 2h (%)

> print(dat)
                                  substance  observed.measurement
1  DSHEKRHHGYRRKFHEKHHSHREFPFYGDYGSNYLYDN [Hst1]               86.6201
2        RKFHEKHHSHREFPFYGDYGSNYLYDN [Hst2]               80.1639
3                  SHREFPFYGDYGS [mad-Hst1]               98.2054
4  cyclo(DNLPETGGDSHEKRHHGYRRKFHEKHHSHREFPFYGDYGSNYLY) [cHst1]                   100

Data provenance: paper PMC4809600
